Assay: Example 6: noncompartmental plasma pharmacokinetics after third dose of the Combination (2 g meropenem/2 g Compound I q8h)
Conditions: both, human, plasma, intravenous, AUC0-8, Compound I 2 g q8h, 1.5-hour BAL Sampling Group
assay_readout: AUC(0-t)
Quote the value and follow it with the unit of measurement.

Request: Quick one: AUC(0-t) for O=C(O)C[C@@H]1CC[C@H](NC(=O)Cc2cccs2)B(O)O1 [Compound I] ?
Response: 184 µg·h/mL

====

Experiment: clinical
Settings: human, in vivo, 1500 mg, Cmax
assay_readout: Cmax (ng/mL)
Just the number please, in ng/mL, no unit attached.

Request: Quick one: Cmax for `O=C(O)C[C@@H]1CC[C@H](NC(=O)Cc2cccs2)B(O)O1` ?
Response: 37200

====

Assay: Example 6: noncompartmental plasma pharmacokinetics after third dose of the Combination (2 g meropenem/2 g Compound I q8h)
Conditions: both, human, plasma, intravenous, Tmax, meropenem 2 g q8h, 6-hour BAL Sampling Group
assay_readout: Tmax (h)
Just the number please, in h, no unit attached.

Request: Quick one: Tmax for `C[C@@H](O)[C@H]1C(=O)N2C(C(=O)O)=C(S[C@@H]3CN[C@H](C(=O)N(C)C)C3)[C@H](C)[C@H]12` ?
Response: 2.98

====

Experiment: clinical
Conditions: both, human, in vivo, ELF concentration at time of bronchoscopy and BAL
assay_readout: concentration at 4 h (ng/mL)
Just the number please, in ng/mL, no unit attached.

Request: Quick one: concentration at 4 h for `O=C(O)C[C@@H]1CC[C@H](NC(=O)Cc2cccs2)B(O)O1` ?
Response: 15700

====

Assay: Example 6: noncompartmental plasma pharmacokinetics after third dose of the Combination (2 g meropenem/2 g Compound I q8h)
Conditions: both, human, plasma, intravenous, Cmax, Compound I 2 g q8h, 6-hour BAL Sampling Group
assay_readout: Cmax (µg/mL)
Just the number please, in µg/mL, no unit attached.

Request: Quick one: Cmax for O=C(O)C[C@@H]1CC[C@H](NC(=O)Cc2cccs2)B(O)O1 [Compound I] ?
Response: 60.9

====

Assay: clinical
Conditions: human, in vivo, Half-Life
assay_readout: half-life (min)
Just the number please, in min, no unit attached.

Request: Quick one: half-life for `C[C@@H](O)[C@H]1C(=O)N2C(C(=O)O)=C(S[C@@H]3CN[C@H](C(=O)N(C)C)C3)[C@H](C)[C@H]12` ?
Response: 58.8

====

Test: Example 6: noncompartmental plasma pharmacokinetics after third dose of the Combination (2 g meropenem/2 g Compound I q8h)
Settings: both, human, plasma, intravenous, CL, meropenem 2 g q8h, 8-hour BAL Sampling Group
assay_readout: clearance (mL/min)
Just the number please, in mL/min, no unit attached.

Request: Quick one: clearance for `C[C@@H](O)[C@H]1C(=O)N2C(C(=O)O)=C(S[C@@H]3CN[C@H](C(=O)N(C)C)C3)[C@H](C)[C@H]12` ?
Response: 187

====

Assay: clinical
Settings: both, human, in vivo, ratio of ELF to total plasma concentrations based on mean AUC0-8
Field: Kp. Provide a value for each of the compounds that follow.
No unit in the answer, please; the number alone is enough.

Request: Quick one: Kp for `O=C(O)C[C@@H]1CC[C@H](NC(=O)Cc2cccs2)B(O)O1` ?
Response: 0.53

Request: Quick one: Kp for `C[C@@H](O)[C@H]1C(=O)N2C(C(=O)O)=C(S[C@@H]3CN[C@H](C(=O)N(C)C)C3)[C@H](C)[C@H]12` ?
Response: 0.63
